Target: 3-oxo-5-alpha-steroid 4-dehydrogenase 2 (Rattus norvegicus, UniProt P31214)
Sequence (P31214 whole entry): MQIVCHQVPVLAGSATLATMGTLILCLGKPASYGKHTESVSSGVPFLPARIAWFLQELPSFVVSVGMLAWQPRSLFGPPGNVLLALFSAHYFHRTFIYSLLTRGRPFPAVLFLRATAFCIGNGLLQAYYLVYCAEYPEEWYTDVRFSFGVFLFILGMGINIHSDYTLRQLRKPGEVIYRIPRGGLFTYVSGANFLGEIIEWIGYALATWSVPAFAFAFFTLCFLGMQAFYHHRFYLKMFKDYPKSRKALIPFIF
measured.parameter: pIC50
Please report pIC50 as the negative decimal logarithm of the molar concentration, giving only the number.

Report pIC50 for CC(C)(C)NC(=O)[C@H]1CC[C@H]2[C@@H]3CC[C@H]4NC(=O)C=C[C@]4(C)[C@H]3CC[C@]12C [FINASTERIDE] tested on 3-oxo-5-alpha-steroid 4-dehydrogenase 2 (Rattus norvegicus, UniProt P31214).
9.55

---

Assay: Bioavailability in dog (Beagle) at t1/2 (dose 5 mg/kg i.v.)
Assay type: ADME, organism-based, Canis lupus familiaris
Settings: in vivo, iv, 4 mg/kg, in the assay text read “dose 4 mg/kg i.v.” for “dose 5 mg/kg i.v.”
measured.parameter: bioavailability (%)

[A] C[C@]12CCC(=O)C=C1NCC1C2CC[C@@]2(C)C1CC[C@@H]2C(=O)Nc1cc(C(F)(F)F)ccc1C(F)(F)F (some centres not stated)
[B] CC(C)(C)c1ccc(C(F)(F)F)cc1NC(=O)[C@H]1CCC2C3CNC4=CC(=O)CC[C@]4(C)C3CC[C@@]21C (some centres not stated)
// pick larger bioavailability from pair: A vs B In your reply, give the label of the chosen option.
A

---

Assay: Inhibition of recombinant human adrenal 3-beta-hydroxy-delta-5-steroid dehydrogenase
pKi: −log10 of the molar value.
measured.parameter: pKi

Below, 3 compounds whose answers are already recorded.
> print(dat)
                                   compound  observed.measurement
1  CC(C)(C)c1ccc(C2(NC(=O)[C@H]3CCC4C5CNC6=CC(=O)CC[C@]6(C)C5CC[C@@]43C)CCCCCC2)cc1 (some centres not stated)                  5.82
2  C[C@]12CCC(=O)C(Cl)=C1NCC1C2CC[C@@]2(C)C1CC[C@@H]2C(=O)NC1(c2ccc(Cl)cc2)CCCC1 (some centres not stated)                  6.31
3  C[C@]12CCC(C(=O)O)=CC1=CCC1C2CC[C@@]2(C)C1CC[C@@H]2C(=O)NC1(c2ccc(Cl)cc2)CCCC1 (some centres not stated)                  6.55

[A] CC(C)(C)c1cc(Br)ccc1NC(=O)[C@H]1CCC2C3CNC4=CC(=O)CC[C@]4(C)C3CC[C@@]21C (some centres not stated)
[B] CC(C)(C)c1cc(NC(=O)[C@H]2CCC3C4CNC5=CC(=O)CC[C@]5(C)C4CC[C@@]32C)cc(C(C)(C)C)c1 (some centres not stated)
[C] CC(C)(C)c1ccc(-c2ccc(C(F)(F)F)cc2NC(=O)[C@H]2CCC3C4CNC5=CC(=O)CC[C@]5(C)C4CC[C@@]32C)cc1 (some centres not stated)
[D] C[C@]12C=CC(=O)NC1CCC1C2CC[C@@]2(C)C1CC[C@@H]2C(=O)NC1(c2ccc(Cl)cc2)CCCC1 (some centres not stated)
Write the entries in order, lowest recorded pKi first. Write the labels out in the order the request specifies.
D, A, C, B

---

Target: 3-oxo-5-alpha-steroid 4-dehydrogenase 1 (Rattus norvegicus, UniProt P24008)
Sequence (P24008 whole entry): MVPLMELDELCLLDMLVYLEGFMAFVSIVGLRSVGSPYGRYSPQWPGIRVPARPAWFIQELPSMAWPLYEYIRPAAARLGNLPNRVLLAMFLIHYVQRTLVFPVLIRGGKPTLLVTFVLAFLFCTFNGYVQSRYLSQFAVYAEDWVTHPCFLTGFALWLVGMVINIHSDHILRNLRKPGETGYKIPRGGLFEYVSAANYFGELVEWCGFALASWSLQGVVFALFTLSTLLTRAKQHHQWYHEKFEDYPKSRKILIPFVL
Test: Inhibition of recombinant Steroid 5-alpha-reductase type I was evaluated as binding affinity of the compound
measured.parameter: Ki (pM)

[1] CC(C)(C)c1ccc(C(F)(F)F)cc1NC(=O)[C@H]1CCC2C3CNC4=CC(=O)CC[C@]4(C)C3CC[C@@]21C (some centres not stated)
[2] C[C@]12CCC(=O)C=C1NCC1C2CC[C@@]2(C)C1CC[C@@H]2C(=O)Nc1cc(C(F)(F)F)ccc1C(F)(F)F (some centres not stated)
Which of these two has the smaller recorded Ki: 1 or 2 ? In your reply, give the label of the chosen option.
1

---

Experiment: Inhibition of recombinant human adrenal 3-beta-hydroxy-delta-5-steroid dehydrogenase
measured.parameter: Ki (nM)

Below, 5 compounds whose answers are already recorded.
> print(dat)
                                   compound  measured.parameter  observed.measurement
1  CC(C)(C)c1ccc(C(C)(C)C)c(NC(=O)[C@H]2CCC3C4CNC5=CC(=O)CC[C@]5(C)C4CC[C@@]32C)c1 (some centres not stated)                  Ki                   500
2  C[C@]12CCC(=O)C=C1NCC1C2CC[C@@]2(C)C1CC[C@@H]2C(=O)Nc1ccccc1 (some centres not stated)                  Ki                    10
3  CC(C)(C)c1ccc(-c2ccc(C(C)(C)C)c(NC(=O)[C@H]3CCC4C5CNC6=CC(=O)CC[C@]6(C)C5CC[C@@]43C)c2)cc1 (some centres not stated)                  Ki                  8900
4  CC(C)(C)c1ccc(Cl)cc1NC(=O)[C@H]1CCC2C3CNC4=CC(=O)CC[C@]4(C)C3CC[C@@]21C (some centres not stated)                  Ki                   760
5  CC(C)(C)c1ccc(Br)cc1NC(=O)[C@H]1CCC2C3CNC4=CC(=O)CC[C@]4(C)C3CC[C@@]21C (some centres not stated)                  Ki                   820

[P] C[C@]12CC[C@H]3[C@@H](CNC4=C(Cl)C(=O)CC[C@@]43C)[C@@H]1CC[C@@H]2C(=O)Nc1cc(C(F)(F)F)ccc1C(F)(F)F (stereo in doubt; 27)
[Q] CC(C)(C)c1ccc(-c2ccccc2)cc1NC(=O)[C@H]1CCC2C3CNC4=CC(=O)CC[C@]4(C)C3CC[C@@]21C (some centres not stated)
Which of these two has the smaller recorded Ki: P or Q ? In your reply, give the label of the chosen option.
P

---

Test: Plasma half life in beagles after iv administration.
Conditions: beagle, dog
measured.parameter: half-life (h)

Below, 2 molecules whose answers are already recorded.
> print(dat)
                                   molecule  observed.measurement
1  CC(C)(C)NC(=O)[C@H]1CC[C@H]2[C@@H]3CC[C@H]4NC(=O)C=C[C@]4(C)[C@H]3CC[C@]12C [FINASTERIDE]                   4.2
2  CC(C)(C)c1ccc(C(F)(F)F)cc1NC(=O)[C@H]1CCC2C3CNC4=CC(=O)CC[C@]4(C)C3CC[C@@]21C (some centres undefined)                   8.8

[a] C[C@]12CCC(=O)C=C1NCC1C2CC[C@@]2(C)C1CC[C@@H]2C(=O)NC1(c2ccc(Cl)cc2)CCCC1 (some centres undefined)
[b] C[C@]12CCC(=O)C=C1NCC1C2CC[C@@]2(C)C1CC[C@@H]2C(=O)Nc1cc(C(F)(F)F)ccc1C(F)(F)F (some centres undefined)
// pick larger half-life from pair: a vs b In your reply, give the label of the chosen option.
b

---

Assay: Inhibition of […] rat adrenal 3-beta-hydroxy-delta-5-steroid dehydrogenase
pKi: −log10 of the molar value.
measured.parameter: pKi

Below, 2 molecules whose answers are already recorded.
> print(dat)
                                   molecule  measured.parameter  observed.measurement
1  CC(C)(C)NC(=O)[C@H]1CC[C@H]2[C@@H]3CC[C@H]4NC(=O)C=C[C@]4(C)[C@H]3CC[C@]12C [FINASTERIDE]                 pKi                  6.82
2  C[C@]12CCC(=O)C=C1NCC1C2CC[C@@]2(C)C1CC[C@@H]2C(=O)NC1(c2ccc(Cl)cc2)CCCC1 (some centres undefined)                 pKi                  7.01

[1] CC(C)(C)c1ccc(C(F)(F)F)cc1NC(=O)[C@H]1CCC2C3CNC4=CC(=O)CC[C@]4(C)C3CC[C@@]21C (some centres undefined)
[2] C[C@]12CCC(=O)C=C1NCC1C2CC[C@@]2(C)C1CC[C@@H]2C(=O)Nc1cc(C(F)(F)F)ccc1C(F)(F)F (some centres undefined)
// pick larger pKi from pair: 1 vs 2 In your reply, give the label of the chosen option.
2
(2: 7.30, 1: 6.85)

---

Biological target: 3-oxo-5-alpha-steroid 4-dehydrogenase 1 (Homo sapiens, UniProt P18405)
Sequence (P18405 whole entry): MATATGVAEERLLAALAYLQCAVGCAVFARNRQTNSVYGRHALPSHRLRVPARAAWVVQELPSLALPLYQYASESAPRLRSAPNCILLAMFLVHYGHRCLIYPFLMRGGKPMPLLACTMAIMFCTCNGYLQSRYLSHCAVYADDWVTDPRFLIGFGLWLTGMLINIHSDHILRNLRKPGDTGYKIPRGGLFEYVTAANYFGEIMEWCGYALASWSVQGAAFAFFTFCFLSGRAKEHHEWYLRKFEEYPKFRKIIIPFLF
Experiment: Inhibition of recombinant Steroid 5-alpha-reductase type I was evaluated as binding affinity of the compound
measured.parameter: IC50 (nM)

> print(dat)
                                   molecule                               system.name  unit.of.measure  observed.measurement
1  C[C@]12C=CC(=O)NC1CCC1C2CC[C@@]2(C)C1CC[C@@H]2C(=O)NC1(c2ccc(Cl)cc2)CCCC1 (stereo partly drawn)  3-oxo-5-alpha-steroid 4-dehydrogenase 1 (Homo sapiens, UniProt P18405)               nM                   0.9

[I] CC(C)(C)NC(=O)[C@H]1CC[C@H]2[C@@H]3CC=C4C=C(C(=O)O)CC[C@]4(C)[C@H]3CC[C@]12C [EPRISTERIDE]
[II] C[C@]12CCC(C(=O)O)=CC1=CCC1C2CC[C@@]2(C)C1CC[C@@H]2C(=O)NC1(c2ccc(Cl)cc2)CCCC1 (stereo partly drawn)
Which of these two has the smaller recorded IC50: I or II ? In your reply, give the label of the chosen option.
II
